Where do the numbers come from? From patent US7026443.

Entries and their measured relative binding ratio (IC50 of standard peptide / IC50 of test peptide) follow.
# Measured target: HLA-A*1101 (human)
# Method notes: competition with 125I-labelled standard peptide for purified HLA, gel filtration
Endpoint label: relative binding ratio (IC50 of standard peptide / IC50 of test peptide)

INSERT INTO assay_data (binder, value_measured) VALUES
  ('KLRHLNEKR (modifications not checked) [HPV18 E6 peptide … (position 117, 9 amino acids)]', 0.0005),
  ('RARQERLQR (modifications not checked) [HPV18 E6 peptide … (position 144, 9 amino acids)]', 0.0002),
  ('NTGLYNLLIR (modifications not checked) [HPV18 E6 peptide … (position 95, 10 amino acids)]', 0.0013),
  ('CMCCKCEARIK (modifications not checked) [HPV18 E7 peptide … (position 63, 11 amino acids)]', 0.0002),
  ('DIEITCVYCK (modifications not checked) [HPV18 E6 peptide … (position 27, 10 amino acids)]', 0.0021),
  ('KLRHLNEKRR (modifications not checked) [HPV18 E6 peptide … (position 117, 10 amino acids)]', 0.0001),
  ('PLNPAEKLR (modifications not checked) [HPV18 E6 peptide … (position 111, 9 amino acids)]', 0.0005),
  ('DSVYGDTLEK (modifications not checked) [HPV18 E6 peptide … (position 83, 10 amino acids)]', 0.0051),
  ('EVFEFAFK (modifications not checked) [HPV18 E6 peptide EVFEFAFK (position 43, 8 amino acids)]', 0.018),
  ('TMLCMCCK (modifications not checked) [HPV18 E7 peptide TMLCMCCK (position 60, 8 amino acids)]', 0.024),
  ('PLCPEEKQR (modifications not checked) [HPV31 E6 peptide … (position 109, 9 amino acids; Seq. Id. No. 10308)]', 0.0005),
  ('SVYGDTLEK (modifications not checked) [HPV18 E6 peptide … (position 84, 9 amino acids)]', 0.23),
  ('LIRCLRCQK (modifications not checked) [HPV18 E6 peptide … (position 102, 9 amino acids)]', 0.0012),
  ('SIPHAACHK (modifications not checked) [HPV18 E6 peptide … (position 59, 9 amino acids)]', 0.12),
  ('CIDFYSRIR (modifications not checked) [HPV18 E6 peptide … (position 68, 9 amino acids)]', 0.0001),
  ('LLIRCLRCQK (modifications not checked) [HPV18 E6 peptide … (position 101, 10 amino acids)]', 0.12),
  ('LTEVFEFAFK (modifications not checked) [HPV18 E6 peptide … (position 41, 10 amino acids)]', 0.036);
